FYI, the data here is from the supplement of paper PMC10567573.

B1: STX5 (parent)
chain: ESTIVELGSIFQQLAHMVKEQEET

- Variants of: B1
- Protocol details: protein stability index of a GFP-peptide fusion (GPS, HEK-293T) (PSI 1-6); higher = more stable;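 also: lentivirally expressed fusions sorted by FACS into six bins by GFP to DsRed ratio, PSI derived from sequencing read proportions per bin multiplied by bin number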
- Stated conditions: c terminus: a fixed tail appended
// F strictly below 2 in protein stability index; T otherwise

// known answers, use as guide
mutation_name=E20K group=T
mutation_name=L7S group=T
mutation_name=E1A group=T
mutation_name=A15E group=T
mutation_name=K19A group=F
mutation_name=E20C group=T

Query: Could you tell me if the measured protein stability index of `S2C` reaches 2 or more?
Response: T

Query: Could you tell me if the measured protein stability index of `E1I` reaches 2 or more?
Response: T

Query: Could you tell me if the measured protein stability index of `K19T` reaches 2 or more?
Response: T
